TGT: Gastrin/cholecystokinin type B receptor (Homo sapiens, UniProt P32239)
Sequence (P32239 whole entry): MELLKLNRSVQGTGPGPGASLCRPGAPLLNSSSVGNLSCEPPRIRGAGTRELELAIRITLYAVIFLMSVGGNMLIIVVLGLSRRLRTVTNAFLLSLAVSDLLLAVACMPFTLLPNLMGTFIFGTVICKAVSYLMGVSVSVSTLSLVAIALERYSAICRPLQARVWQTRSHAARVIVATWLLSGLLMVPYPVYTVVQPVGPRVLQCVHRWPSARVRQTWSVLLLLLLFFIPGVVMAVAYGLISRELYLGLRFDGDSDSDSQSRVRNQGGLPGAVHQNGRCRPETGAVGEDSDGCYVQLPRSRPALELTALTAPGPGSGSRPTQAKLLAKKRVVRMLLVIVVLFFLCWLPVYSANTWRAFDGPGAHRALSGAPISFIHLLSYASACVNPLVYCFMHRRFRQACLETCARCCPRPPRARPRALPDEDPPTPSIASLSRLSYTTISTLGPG
PROTOCOL DETAILS: Displacement of [125I]CCK-8(SO3) from human CCK2 receptor expressed in HEK293 cells
Where a SMILES comes first, the peptide text is derived from it. [ ]: non-standard residue; d: D form. NMeNle = CCCC[C@H](NC)C(=O)O
READOUT KIND: pIC50
// pIC50: -log10(molar conc.)

These recorded examples may help you get a feel for the data.
# COMPOUND, pIC50
rows = [
    ("CCCC[C@H](NC(=O)[C@@H](Cc1c[nH]c2ccccc12)NC(=O)CNC(=O)[C@@H](Cc1ccccc1)NC(=O)[C@@H](N)Cc1ccc(O)cc1)C(=O)N[C@@H](CC(=O)O)C(=O)N[C@@H](Cc1ccccc1)C(N)=O", 5.76),
    ("CCCC[C@@H](C(=O)N[C@@H](CC(=O)O)C(=O)N[C@@H](Cc1ccccc1)C(N)=O)N(C)C(=O)[C@H](Cc1c[nH]c2ccccc12)NC(=O)CNC(=O)[C@H]1CCCN1C(=O)[C@@H](N)Cc1ccc(O)cc1", 8.57),
    ("CCCC[C@@H](NC(=O)[C@@H](N)Cc1ccc(O)cc1)C(=O)NCC(=O)N[C@@H](Cc1c[nH]c2ccccc12)C(=O)N(C)[C@@H](CCCC)C(=O)N[C@@H](CC(=O)O)C(=O)N[C@@H](Cc1ccccc1)C(N)=O", 8.42),
    ("CCCC[C@@H](C(=O)N[C@@H](CC(=O)O)C(=O)N[C@@H](Cc1ccccc1)C(N)=O)N(C)C(=O)[C@@H](Cc1c[nH]c2ccccc12)NC(=O)CNC(=O)[C@@H](C)NC(=O)[C@@H](N)Cc1ccc(O)cc1", 8.81),
    ("CCCC[C@H](NC(=O)[C@H](Cc1c[nH]c2ccccc12)NC(=O)CNC(=O)[C@@H](CCCC)NC(=O)[C@@H](N)Cc1ccc(O)cc1)C(=O)N[C@@H](CC(=O)O)C(=O)N[C@@H](Cc1ccccc1)C(N)=O", 7.82),
    ("CCCC[C@H](NC(=O)[C@@H](Cc1c[nH]c2ccccc12)NC(=O)CNC(=O)[C@@H](CCCC)NC(=O)[C@@H](N)Cc1ccc(O)cc1)C(=O)N[C@@H](CC(=O)O)C(=O)N[C@@H](Cc1ccccc1)C(N)=O", 5.66),
    ("CCCC[C@H](NC(=O)[C@H](Cc1c[nH]c2ccccc12)NC(=O)CNC(=O)[C@@H](Cc1ccccc1)NC(=O)[C@@H](N)Cc1ccc(O)cc1)C(=O)N[C@@H](CC(=O)O)C(=O)N[C@@H](Cc1ccccc1)C(N)=O", 7.59),
    ("CCCC[C@@H](C(=O)N[C@@H](CC(=O)O)C(=O)N[C@@H](Cc1ccccc1)C(N)=O)N(C)C(=O)[C@H](Cc1c[nH]c2ccccc12)NC(=O)CNC(=O)[C@@H]1CCCN1C(=O)[C@@H](N)Cc1ccc(O)cc1", 9.66),
    ("CCCC[C@H](NC(=O)[C@@H](Cc1c[nH]c2ccccc12)NC(=O)CNC(=O)[C@@H](C)NC(=O)[C@@H](N)Cc1ccc(O)cc1)C(=O)N[C@@H](CC(=O)O)C(=O)N[C@@H](Cc1ccccc1)C(N)=O", 5.57),
    ("CCCC[C@@H](C(=O)N[C@@H](CC(=O)O)C(=O)N[C@@H](Cc1ccccc1)C(N)=O)N(C)C(=O)[C@H](Cc1c[nH]c2ccccc12)NC(=O)CNC(=O)[C@@H](Cc1ccccc1)NC(=O)[C@@H](N)Cc1ccc(O)cc1", 7.82),
]

Q: Which pIC50 is listed for CCCC[C@@H](C(=O)N[C@@H](CC(=O)O)C(=O)N[C@@H](Cc1ccccc1)C(N)=O)N(C)C(=O)[C@H](Cc1c[nH]c2ccccc12)NC(=O)CNC(=O)CNC(=O)[C@@H](N)Cc1ccc(O)cc1 (H-YGGW[NMeNle]DF-NH2) ?
Ans: 8.32

Q: Repeat with CCCC[C@@H](C(=O)N[C@@H](CC(=O)O)C(=O)N[C@@H](Cc1ccccc1)C(N)=O)N(C)C(=O)[C@H](Cc1c[nH]c2ccccc12)NC(=O)CNC(=O)[C@@H](C)NC(=O)[C@@H](N)Cc1ccc(O)cc1
Ans: 8.79

Q: Repeat for the following compound: CCCC[C@@H](C(=O)N[C@@H](CC(=O)O)C(=O)N[C@@H](Cc1ccccc1)C(N)=O)N(C)C(=O)[C@@H](Cc1c[nH]c2ccccc12)NC(=O)CNC(=O)[C@@H](Cc1ccccc1)NC(=O)[C@@H](N)Cc1ccc(O)cc1
Ans: 8.96

Q: Input CCCC[C@@H](NC(=O)[C@@H](N)Cc1ccc(O)cc1)C(=O)NCC(=O)N[C@H](Cc1c[nH]c2ccccc12)C(=O)N(C)[C@@H](CCCC)C(=O)N[C@@H](CC(=O)O)C(=O)N[C@@H](Cc1ccccc1)C(N)=O
Ans: 5.96

Q: Same read-out for CCCC[C@H](NC(=O)[C@H](Cc1c[nH]c2ccccc12)NC(=O)CNC(=O)[C@@H](C)NC(=O)[C@@H](N)Cc1ccc(O)cc1)C(=O)N[C@@H](CC(=O)O)C(=O)N[C@@H](Cc1ccccc1)C(N)=O ?
Ans: 6.84
